Can you tell me pIC50 for the items I'm about to list?
Target: Muscarinic acetylcholine receptor M3 (Rattus norvegicus, UniProt P08483)
Sequence (P08483 whole entry): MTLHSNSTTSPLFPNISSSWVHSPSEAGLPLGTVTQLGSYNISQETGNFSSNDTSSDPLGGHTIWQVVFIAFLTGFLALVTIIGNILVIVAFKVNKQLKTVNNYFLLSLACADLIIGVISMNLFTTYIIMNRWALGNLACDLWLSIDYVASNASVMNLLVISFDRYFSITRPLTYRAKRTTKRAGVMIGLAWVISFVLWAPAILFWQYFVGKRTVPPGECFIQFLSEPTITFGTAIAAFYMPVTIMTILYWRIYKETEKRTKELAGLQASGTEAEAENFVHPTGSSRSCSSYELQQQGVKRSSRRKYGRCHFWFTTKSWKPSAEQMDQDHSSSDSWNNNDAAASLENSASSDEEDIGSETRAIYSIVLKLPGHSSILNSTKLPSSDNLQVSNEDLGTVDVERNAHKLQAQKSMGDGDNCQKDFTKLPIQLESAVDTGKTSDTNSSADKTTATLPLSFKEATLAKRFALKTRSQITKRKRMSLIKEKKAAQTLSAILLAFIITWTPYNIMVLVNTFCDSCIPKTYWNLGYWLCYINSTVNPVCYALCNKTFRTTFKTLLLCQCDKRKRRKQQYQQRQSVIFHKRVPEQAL
Assay: Negative allosteric modulation of rat muscarinic acetylcholine receptor M3 expressed in CHO cells assessed as inhibition of acetylcholine-induced calcium mobilization incubated for 150 secs prior to acetylcholine induction by Fluo-4 AM staining-based fluorescence assay
pIC50: −log10 of the molar value.

Field: pIC50. Fill in for each record below.
1. O=C(c1ccc(F)c(F)c1)N1CCN2C(=O)c3ccccc3[C@@]12c1ccc(Cl)cc1
2. O=C(c1ccc(F)c(F)c1)N1CCN2C(=O)c3ccccc3C12c1ccccc1 (configuration not stated)

1. < 4.52
2. < 4.52
